Molecular target: PPAR-α (Homo sapiens)
Construct: expressed in transfected cells; host or cells: CV-1 (African green monkey kidney)
Sequence (Q07869 167-468): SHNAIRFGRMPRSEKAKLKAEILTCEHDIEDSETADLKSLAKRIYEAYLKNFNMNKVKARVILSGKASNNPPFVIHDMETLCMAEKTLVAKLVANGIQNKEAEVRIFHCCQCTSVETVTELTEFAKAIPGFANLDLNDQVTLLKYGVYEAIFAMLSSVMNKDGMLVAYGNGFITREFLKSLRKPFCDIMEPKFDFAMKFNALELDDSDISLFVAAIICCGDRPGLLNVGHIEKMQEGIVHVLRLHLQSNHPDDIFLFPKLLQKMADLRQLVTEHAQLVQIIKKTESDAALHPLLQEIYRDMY
Assay: PPAR-α reporter assay (GAL4 luciferase, CV-1 cells)
Type: cell-based
Conditions: induction ratio of luciferase activity at 50 μM, activity without tested compound = 1, hGR-GAL4-hPPAR-α
Rule: PPAR-α induction ratio under 3 gives No, otherwise Yes.

CCCCCCCCCCCC(=O)NC(Cc1ccccc1C)C(=O)O (racemic) = No

Prompt: Entry CCCCCCCCCCCC(=O)N[C@@H](CC(C)C)C(=O)O : is its PPAR-α induction ratio no less than 3?
Response: Yes

Prompt: Entry CCCCCCCCCCCCCCCCCC(=O)N[C@@H](CC(C)C)C(=O)O : is its PPAR-α induction ratio no less than 3?
Response: No

Prompt: Entry CCCCCCCCCCCCCC(=O)N[C@@H](CC(C)C)C(=O)O : is its PPAR-α induction ratio no less than 3?
Response: Yes

Prompt: Entry CCCCCCCCCCC(=O)N[C@@H](Cc1ccccc1)C(=O)O : is its PPAR-α induction ratio no less than 3?
Response: No

Prompt: Entry CCCCCCCCCCCC(=O)N[C@@H](Cc1ccc(OC)cc1)C(=O)O : is its PPAR-α induction ratio no less than 3?
Response: Yes

Prompt: Entry CCCCCCCCCCCC(=O)NC(C)(C(=O)O)C(C)C (racemic) : is its PPAR-α induction ratio no less than 3?
Response: Yes

Prompt: Entry C=CCCCCCCCCC(=O)N[C@@H](Cc1ccccc1)C(=O)O : is its PPAR-α induction ratio no less than 3?
Response: No

Prompt: Entry CCCCCCCCCCCC(=O)N[C@H](C(=O)O)C(c1ccccc1)c1ccccc1 : is its PPAR-α induction ratio no less than 3?
Response: No

Source: patent US7728158B2
